tgt: HLA-A*02:01
measurement-protocol: IEDB peptide-MHC binding, purified MHC/competitive/radioactivity; bounds were set here for any values at or beyond the usual limits of such assays
measurement-setup: source organism: Trypanosoma cruzi
Mark Y only when IC50 stays strictly below 900 nM. Values equal to the cut-off are N.

>  <sequence-entry>
ALSLAAVLVV

>  <tgt>
HLA-A*02:01

>  <assigned-class>
Y

$$$$
>  <sequence-entry>
RVFTSAVLL

>  <tgt>
HLA-A*02:01

>  <assigned-class>
Y

$$$$
>  <sequence-entry>
SLVYVNGVVV

>  <tgt>
HLA-A*02:01

>  <assigned-class>
N

$$$$
>  <sequence-entry>
KTWADEYLCV

>  <tgt>
HLA-A*02:01

>  <assigned-class>
Y

$$$$
>  <sequence-entry>
QLDHGVLLV

>  <tgt>
HLA-A*02:01

>  <assigned-class>
Y

$$$$
>  <sequence-entry>
ALSLAAVLV

>  <tgt>
HLA-A*02:01

>  <assigned-class>
Y

$$$$
>  <sequence-entry>
MTSCVSEQL

>  <tgt>
HLA-A*02:01

>  <assigned-class>
Y

$$$$
>  <sequence-entry>
IILNGSLLT

>  <tgt>
HLA-A*02:01

>  <assigned-class>
N

$$$$
>  <sequence-entry>
KVVSLVILA

>  <tgt>
HLA-A*02:01

>  <assigned-class>
Y

$$$$
>  <sequence-entry>
AANPHATFGV

>  <tgt>
HLA-A*02:01

>  <assigned-class>
N

$$$$
>  <sequence-entry>
AASTLLYATV

>  <tgt>
HLA-A*02:01

>  <assigned-class>
N

$$$$
>  <sequence-entry>
GLMNNAFEWI

>  <tgt>
HLA-A*02:01

>  <assigned-class>
Y

$$$$
>  <sequence-entry>
WLSDCGEAL

>  <tgt>
HLA-A*02:01

>  <assigned-class>
Y

$$$$
>  <sequence-entry>
FTLVAPVSI

>  <tgt>
HLA-A*02:01

>  <assigned-class>
Y

$$$$
>  <sequence-entry>
LMNNAFEWIV

>  <tgt>
HLA-A*02:01

>  <assigned-class>
Y

$$$$
>  <sequence-entry>
SMNATLVQA

>  <tgt>
HLA-A*02:01

>  <assigned-class>
Y

$$$$
>  <sequence-entry>
RVFGLLLLGL

>  <tgt>
HLA-A*02:01

>  <assigned-class>
Y

$$$$
>  <sequence-entry>
RALSLAAVL

>  <tgt>
HLA-A*02:01

>  <assigned-class>
N

$$$$
>  <sequence-entry>
LLTTSGVSAI

>  <tgt>
HLA-A*02:01

>  <assigned-class>
N

$$$$
>  <sequence-entry>
FTSAVLLLV

>  <tgt>
HLA-A*02:01

>  <assigned-class>
Y

$$$$
>  <sequence-entry>
AMALIGDSTV

>  <tgt>
HLA-A*02:01

>  <assigned-class>
Y

$$$$
>  <sequence-entry>
LMNNAFEWI

>  <tgt>
HLA-A*02:01

>  <assigned-class>
Y

$$$$
>  <sequence-entry>
GLLLLGLWGT

>  <tgt>
HLA-A*02:01

>  <assigned-class>
Y

$$$$
>  <sequence-entry>
RLHLWLSDM

>  <tgt>
HLA-A*02:01

>  <assigned-class>
N

$$$$
>  <sequence-entry>
AVLVVMACL

>  <tgt>
HLA-A*02:01

>  <assigned-class>
N

$$$$
>  <sequence-entry>
VVMACLVPAA

>  <tgt>
HLA-A*02:01

>  <assigned-class>
Y

$$$$
>  <sequence-entry>
TLLYATVEV

>  <tgt>
HLA-A*02:01

>  <assigned-class>
Y

$$$$
>  <sequence-entry>
FLAGHPLTNL

>  <tgt>
HLA-A*02:01

>  <assigned-class>
Y

$$$$
>  <sequence-entry>
LLLGLWGTA

>  <tgt>
HLA-A*02:01

>  <assigned-class>
N

$$$$
>  <sequence-entry>
SIHVTVSNV

>  <tgt>
HLA-A*02:01

>  <assigned-class>
N

$$$$
>  <sequence-entry>
VMACLVPAA

>  <tgt>
HLA-A*02:01

>  <assigned-class>
Y

$$$$
>  <sequence-entry>
MMSCSSEAT

>  <tgt>
HLA-A*02:01

>  <assigned-class>
N

$$$$
